Where do the numbers come from? From patent US9018411B2.

- protocol_details: Decomposition of compound in PBS buffer, pH 7.4 determined by HPLC
- Format: physicochemical
- study_conditions: 37° C. under argon, read-out: approximate half-life (in parentheses in Decomp. Time column)

[
  {
    "molecule": "CC(=O)ON(C(C)=O)S(=O)(=O)c1ccccc1Br [Compound 19]",
    "half-life": "~20 min"
  },
  {
    "molecule": "CC(=O)ON(C(C)=O)S(=O)(=O)c1c(F)cccc1F [Compound 24]",
    "half-life": "~30 min"
  },
  {
    "molecule": "CC(=O)ON(C(C)=O)S(=O)(=O)c1c(Br)cccc1Br [Compound 22]",
    "half-life": "~20 min"
  },
  {
    "molecule": "CC(=O)ON(C(C)=O)S(=O)(=O)c1c(Cl)cccc1Cl [Compound 23]",
    "half-life": "~40 min"
  }
]

====

Catalogue of compounds with associated % N2O pH 10.3
- protocol_details: HNO production via N2O quantification (GC headspace analysis)
- Assay type: physicochemical
- study_conditions: compound incubated in pH 10.3 carbonate buffer; 37° C. under argon; N2O relative to Angeli's salt

[
  {
    "smiles_input": "CC(=O)ON(C(=O)OC(C)(C)C)S(=O)(=O)c1c(Br)cccc1Br",
    "% N2O pH 10.3 / %": 37
  },
  {
    "smiles_input": "CC(=O)ON(C(=O)C(C)(C)C)S(=O)(=O)c1c(Cl)cccc1Cl",
    "% N2O pH 10.3 / %": 33
  },
  {
    "smiles_input": "CC(=O)ON(C(=O)OCc1ccccc1)S(=O)(=O)c1c(Cl)cccc1Cl",
    "% N2O pH 10.3 / %": 52
  },
  {
    "smiles_input": "CC(=O)ON(C(=O)c1ccccc1)S(=O)(=O)c1c(Cl)cccc1Cl",
    "% N2O pH 10.3 / %": 44
  },
  {
    "smiles_input": "CC(=O)ON(C(=O)C(Cl)Cl)S(=O)(=O)c1c(Cl)cccc1Cl",
    "% N2O pH 10.3 / %": 8
  },
  {
    "smiles_input": "CC(=O)ON(C(C)=O)S(=O)(=O)c1c(Cl)cccc1Cl",
    "% N2O pH 10.3 / %": 56
  }
]

====

- protocol_details: Decomposition of compound in PBS buffer, pH 7.4 determined by HPLC
- Format: physicochemical
- study_conditions: 37° C. under argon
Catalogue of compounds with associated Decomp. Time (time required for complete decomposition)
endpoint: Decomp. Time (time required for complete decomposition)

[
  {
    "compound": "CC(C)(C)OC(=O)N(OC(=O)c1ccc([N+](=O)[O-])cc1)S(=O)(=O)c1c(Cl)cccc1Cl [Compound 40]",
    "result_value": "<3 h"
  },
  {
    "compound": "CC(C)(C)C(=O)ON(Cl)C(=O)C(C)(C)C [Compound 12]",
    "result_value": "<3 h"
  },
  {
    "compound": "CC(=O)ON(C(=O)C(Cl)Cl)S(=O)(=O)c1c(Cl)cccc1Cl [Compound 30]",
    "result_value": "<3 h"
  },
  {
    "compound": "CC(=O)ON(Cl)C(=O)C(C)(C)C [Compound 14]",
    "result_value": "<3 h"
  },
  {
    "compound": "CC(=O)ON(C(C)=O)S(=O)(=O)c1ccccc1[N+](=O)[O-] [Compound 25]",
    "result_value": "<3 h"
  },
  {
    "compound": "CCOC(=O)ON(Cl)C(=O)OCC [Compound 11]",
    "result_value": "<3 h"
  },
  {
    "compound": "CC(=O)ON(Br)C(C)=O [Compound 15, N-bromo-N-acetyloxy-acetamide]",
    "result_value": "<3 h"
  },
  {
    "compound": "CC(=O)ON(C(C)=O)S(=O)(=O)c1ccccc1Br [Compound 19]",
    "result_value": "< 2 h"
  },
  {
    "compound": "CC(=O)ON(C(=O)c1ccccc1)S(=O)(=O)c1c(Cl)cccc1Cl [Compound 28]",
    "result_value": "<3 h"
  },
  {
    "compound": "CC(=O)ON(C(=O)OC(C)(C)C)S(=O)(=O)c1c(Cl)cccc1Cl [Compound 37]",
    "result_value": "<3 h"
  },
  {
    "compound": "O=C(ON(Cl)C(=O)c1ccccc1)c1ccccc1 [Compound 1, N-chloro-N-benzoyloxy-benzamide]",
    "result_value": "<3 h"
  },
  {
    "compound": "CC(=O)ON(C(=O)C(C)(C)C)S(=O)(=O)c1cc(Cl)ccc1Cl [Compound 31]",
    "result_value": "<20 h"
  },
  {
    "compound": "CC(=O)ON(Cl)C(=O)OC(C)(C)C [Compound 10]",
    "result_value": "<3 h"
  },
  {
    "compound": "CC(=O)ON(C(C)=O)S(=O)(=O)c1c(Cl)cccc1Cl [Compound 23]",
    "result_value": "< 3 h"
  }
]

====

- protocol_details: HNO production via N2O quantification (GC headspace analysis)
- Assay type: physicochemical
- study_conditions: compound incubated in PBS buffer, pH 7.4; 37° C. under argon; N2O relative to Angeli's salt
Outcome label depends on % N2O pH 7.4 relative to 20%: at/above gives class 1, below gives class 0.

[
  {
    "smiles_input": "CC(=O)ON(C(=O)c1ccccc1)S(=O)(=O)c1c(Cl)cccc1Cl",
    "assigned_class": "class 0"
  },
  {
    "smiles_input": "CCOC(=O)ON(Cl)C(=O)OCC",
    "assigned_class": "class 0"
  },
  {
    "smiles_input": "CC(=O)ON(C(=O)OCc1ccccc1)S(=O)(=O)c1c(Cl)cccc1Cl",
    "assigned_class": "class 1"
  },
  {
    "smiles_input": "CC(=O)ON(C(C)=O)S(=O)(=O)c1c(F)cccc1F",
    "assigned_class": "class 1"
  },
  {
    "smiles_input": "CC(=O)ON(C(=O)C(C)(C)C)S(=O)(=O)c1c(Cl)cccc1Cl",
    "assigned_class": "class 0"
  },
  {
    "smiles_input": "CC(=O)ON(C(=O)C(C)(C)C)S(=O)(=O)c1ccccc1[N+](=O)[O-]",
    "assigned_class": "class 0"
  },
  {
    "smiles_input": "O=C(ON(Cl)C(=O)c1ccc(Cl)cc1)c1ccc(Cl)cc1",
    "assigned_class": "class 0"
  },
  {
    "smiles_input": "CC(=O)ON(C(C)=O)S(=O)(=O)CCl",
    "assigned_class": "class 0"
  },
  {
    "smiles_input": "CCOC(=O)N(OC(C)=O)S(=O)(=O)c1c(Cl)cccc1Cl",
    "assigned_class": "class 1"
  }
]

====

- protocol_details: HNO production via N2O quantification (GC headspace analysis)
- Format: physicochemical
- study_conditions: compound incubated in PBS buffer, pH 7.4; 37° C. under argon; N2O relative to Angeli's salt
Outcome label depends on % N2O pH 7.4 relative to 7%: at/above gives rule met, below gives rule not met.

[
  {
    "compound": "CC(C)(C)C(=O)ON(Cl)C(=O)C(C)(C)C",
    "assigned_class": "rule not met"
  },
  {
    "compound": "CC(=O)ON(Cl)C(=O)OC(C)(C)C",
    "assigned_class": "rule met"
  },
  {
    "compound": "CC(=O)ON(Cl)C(=O)c1ccccc1 [Compound 6, N-chloro-N-acetoxy-benzamide]",
    "assigned_class": "rule not met"
  },
  {
    "compound": "CC(=O)ON(C(C)=O)S(=O)(=O)c1ccccc1Br",
    "assigned_class": "rule met"
  },
  {
    "compound": "CC(=O)ON(C(=O)OC(C)(C)C)S(=O)(=O)c1c(Br)cccc1Br",
    "assigned_class": "rule not met"
  },
  {
    "compound": "CC(=O)ON(Cl)C(=O)C(C)(C)C",
    "assigned_class": "rule not met"
  },
  {
    "compound": "CC(=O)ON(C(=O)OC(C)(C)C)S(=O)(=O)c1c(Cl)cccc1Cl",
    "assigned_class": "rule not met"
  },
  {
    "compound": "CC(=O)ON(C(C)=O)S(=O)(=O)c1c(F)cc(F)cc1Br",
    "assigned_class": "rule met"
  },
  {
    "compound": "CC(=O)ON(C(C)=O)S(=O)(=O)c1ccccc1Cl",
    "assigned_class": "rule met"
  },
  {
    "compound": "O=C(c1ccccc1)N(Cl)OC(=O)C(F)(F)F",
    "assigned_class": "rule not met"
  },
  {
    "compound": "CC(=O)ON(Cl)C(C)=O [Compound 9, N-chloro-N-acetyloxy-acetamide]",
    "assigned_class": "rule met"
  },
  {
    "compound": "CC(=O)ON(C(C)=O)S(=O)(=O)c1c(Br)cccc1Br",
    "assigned_class": "rule met"
  }
]
